Cited source: patent US10669238B2

- assay_target: BTK protein kinase (Homo sapiens, UniProt Q06187)
- Sequence (Q06187 whole entry): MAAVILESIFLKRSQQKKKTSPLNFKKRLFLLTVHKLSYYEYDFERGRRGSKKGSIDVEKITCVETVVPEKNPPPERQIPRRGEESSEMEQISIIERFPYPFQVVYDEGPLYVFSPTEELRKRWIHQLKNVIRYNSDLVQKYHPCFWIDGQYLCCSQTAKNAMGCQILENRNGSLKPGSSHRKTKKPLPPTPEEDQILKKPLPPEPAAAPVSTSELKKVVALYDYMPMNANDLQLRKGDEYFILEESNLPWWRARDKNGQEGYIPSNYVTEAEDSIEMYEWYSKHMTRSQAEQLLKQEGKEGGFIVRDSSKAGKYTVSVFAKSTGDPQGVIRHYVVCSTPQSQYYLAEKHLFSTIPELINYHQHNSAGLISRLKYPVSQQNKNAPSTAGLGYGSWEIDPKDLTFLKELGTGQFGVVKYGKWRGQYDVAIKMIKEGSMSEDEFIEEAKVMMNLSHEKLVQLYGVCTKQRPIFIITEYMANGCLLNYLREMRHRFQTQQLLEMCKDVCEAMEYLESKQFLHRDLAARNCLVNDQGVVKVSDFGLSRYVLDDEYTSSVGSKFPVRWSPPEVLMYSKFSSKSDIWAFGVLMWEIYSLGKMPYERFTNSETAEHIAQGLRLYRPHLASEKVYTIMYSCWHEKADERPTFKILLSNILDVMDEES
- assay_notes: In vitro enzymatic activity against BTK (ADP-Glo)
- Assay type: biochemical
- reported_conditions: compound with BTK 4 hours at room temperature; ATP 10 μM, 37° C. 1 hour; values in nM
Listed here are molecules together with their documented IC50.
value_kind: IC50 (nM)

molecule	recorded_result
C=CC(=O)Nc1cc(Nc2cc(-c3cccc(NC(=O)c4ccc5c(c4)OCO5)c3C)cn(C)c2=O)ccc1C(=O)N1CCOCC1 [Compound 18]	187
Cc1c(NC(=O)c2ccc(N3CCOCC3)cc2)cccc1-c1cc(Nc2ccc(C(=O)N3CCOCC3)c(NC(=O)CCl)c2)c(=O)n(C)c1 [Compound 16]	437
C=CC(=O)Nc1cc(Nc2cc(-c3cccc(NC(=O)c4ccc(N(C)C)cc4)c3C)cn(C)c2=O)ccc1N1CCOCC1 [Compound 73]	24.9

###

Listed here are compounds together with their documented pEC50.
- assay_target: BTK WT (Homo sapiens)
- Sequence (Q06187 whole entry): as above
- assay_notes: Btk cell-free kinase assay, BTK WT protein
- reported_conditions: compound 30 mins at room temperature, then 100 μM ATP 20 min at 37° C.; read-out: EC50 against BTK WT protein
- From the text: The BTK wild-type plasmid and the BTK mutant plasmid (C481S) were respectively transfected into SF9 cells (purchased from invitrogen), and after three generations of virus amplification, the P3-generation virus was used to transfect SF9 cells which were collected after 72-hour culture to obtain protein BTK WT and protein BTK C481S, which were then purified.
pEC50: −log10 of the molar value.
value_kind: pEC50

compound	recorded_result
C=CC(=O)Nc1cc(Nc2cc(-c3cccc(NC(=O)c4ccc(C(C)(C)C)cc4)c3C)cn(C)c2=O)ccc1C(=O)N1CCOCC1 [Compound 1]	8.33
C=CC(=O)Nc1cc(Nc2cc(-c3cccc(NC(=O)c4ccc(N(C)C)cc4)c3C)cn(C)c2=O)ccc1C(=O)N1CCOCC1 [Compound 35]	7.80

###

Listed here are molecules together with their documented IC50.
- assay_target: BTK protein kinase (Homo sapiens)
- assay_notes: In vitro enzymatic activity against BTK (ADP-Glo)
- Type: biochemical
- reported_conditions: compound with BTK 4 hours at room temperature; ATP 10 μM, 37° C. 1 hour; values in nM

molecule	unit_of_measure	IC50
CCC(=O)Nc1cc(Nc2cc(-c3cccc(NC(=O)c4ccc(C(C)(C)C)cc4)c3C)cn(C)c2=O)ccc1C(=O)N1CCNCC1 [Compound 41]	nM	42
C=CC(=O)Nc1cc(Nc2cc(-c3cccc(NC(=O)c4ccc(CC)cc4)c3C)cn(C)c2=O)ccc1C(=O)N1CCOCC1 [Compound 62]	nM	164
C=CC(=O)Nc1cc(Nc2cc(-c3cccc(NC(=O)c4ccc(C(C)(C)C)cc4)c3C)cn(C)c2=O)ccc1C(=O)OC [Compound 49]	nM	162

###

- assay_target: UniProt:Q06187
- assay_notes: In vitro enzymatic activity against BTK (ADP-Glo)
- Format: biochemical
- reported_conditions: compound with BTK 4 hours at room temperature; ATP 10 μM, 37° C. 1 hour; values in nM
Listed here are molecules together with their documented IC50.

molecule	IC50, nM
C=CC(=O)Nc1cc(Nc2cc(-c3cccc(NC(=O)c4cc5ccccc5s4)c3C)cn(C)c2=O)ccc1-n1cccn1 [Compound 85]	130
C=CC(=O)Nc1cc(Nc2cc(-c3cccc(NC(=O)c4cc5ccccc5s4)c3C)cn(C)c2=O)ccc1N1CCOCC1 [Compound 82]	98.8
C=CC(=O)Nc1cc(Nc2cc(-c3cccc(NC(=O)c4cc5c(s4)CCCC5)c3C)cn(C)c2=O)ccc1-n1cccn1 [Compound 86]	9.9
C=CC(=O)Nc1cc(Nc2cc(-c3cccc(NC(=O)c4cc5ccccc5s4)c3C)cn(C)c2=O)ccc1N1CCN(C)CC1 [Compound 81]	28.9

###

- assay_target: UniProt:Q06187
- assay_notes: In vitro enzymatic activity against BTK (ADP-Glo)
- Type: biochemical
- reported_conditions: compound with BTK 4 hours at room temperature; ATP 10 μM, 37° C. 1 hour; values in nM
Listed here are molecules together with their documented IC50.

input_smiles	IC50 / nM
C=CC(=O)Nc1cc(Nc2cc(-c3cccc(NC(=O)c4ccc(N5CCOCC5)cc4)c3C)cn(C)c2=O)ccc1C(=O)N1CCOCC1	262
C=CC(=O)Nc1cc(Nc2cc(-c3cccc(NC(=O)c4ccc(C(C)(C)C)cc4)c3C)cn(C)c2=O)ccc1C(=O)N(C)C	25
CCC(=O)Nc1cc(Nc2cc(-c3cccc(NC(=O)c4ccc(C(C)(C)C)cc4)c3C)cn(C)c2=O)ccc1C(=O)N1CCOCC1	207
